- Tested on: VRE (E. faecium ATCC 700221) planktonic cells and biofilms
- Protocol Details: Calgary Biofilm Device (CBD) assay, MBC/MBEC
- Format: cell-based, Enterococcus faecium
- Condition Label: Enterococcus; Table 8; c lowest concentration tested; read-out: VRE 700221 MBC
Lab note - cut at 10 µM for MBC: rule met if strictly below, rule not met if not.

Compound: CC(=O)NC[C@H]1CN(c2ccc(N3CCOCC3)c(F)c2)C(=O)O1 [Linezolid, linezolid, reference compound]
Classification: rule not met
//
Compound: Oc1c(I)cc(I)c2nc3ccccc3nc12 [Compound 4, 2,4,-Diiodo-1-hydroxyphenazine]
Classification: rule not met
//
Compound: Oc1ccc(Br)c2nc3cc(Br)c(Br)cc3nc12 [Compound 13]
Classification: rule not met
//
Compound: Oc1c(Br)cc(I)c2nc3cc(Cl)c(Cl)cc3nc12 [Compound 14]
Classification: rule met

*Q* Dear reviewer, please state whether Oc1c(Br)cc(I)c2nc3ccccc3nc12 [Compound 8, 2-Bromo-4-iodo-1-hydroxyphenazine] has MBC strictly beneath 10 µM.
*A* rule met

*Q* Dear reviewer, please state whether Oc1c(Br)cc(Cl)c2nc3ccccc3nc12 [Compound 7, 2-Bromo-4-chloro-1-hydroxyphenazine] has MBC strictly beneath 10 µM.
*A* rule met

*Q* Dear reviewer, please state whether Oc1c(Br)cc(Br)c2nc3cc(Br)c(Br)cc3nc12 [Compound 17, 2,4,7,8-tetrabromo-1-hydroxyphenazine] has MBC strictly beneath 10 µM.
*A* rule met

*Q* Dear reviewer, please state whether CC(=O)N[C@@H](CS)C(=O)O [NAC, N-acetyl cysteine, reference compound] has MBC strictly beneath 10 µM.
*A* rule not met

*Q* Dear reviewer, please state whether Oc1c(Br)cc(Br)c2nc3cc(Cl)c(Cl)cc3nc12 [Compound 16] has MBC strictly beneath 10 µM.
*A* rule met

*Q* Dear reviewer, please state whether CCCCc1cc(Br)c(O)c2nc3ccccc3nc12 [Compound 22, 2-Bromo-4-butyl-1-hydroxyphenazine] has MBC strictly beneath 10 µM.
*A* rule met

*Q* Dear reviewer, please state whether Oc1c(Cl)cc(Br)c2nc3ccccc3nc12 [Compound 5, 4-Bromo-2-chloro-1-hydroxyphenazine] has MBC strictly beneath 10 µM.
*A* rule not met

*Q* Dear reviewer, please state whether Oc1ccc(Br)c2nc3cc(Cl)c(Cl)cc3nc12 [Compound 11] has MBC strictly beneath 10 µM.
*A* rule not met

====

- Tested on: human red blood cells
- Protocol Details: Hemolysis assay with red blood cells
- Condition Label: human, 1 h, 200 μM, pH 7.2
We begin with a simple list: items and their reported % Hemolysis (200 μM).

Consider the following illustrative entries.
Molecule: CO[C@H]1/C=C/O[C@@]2(C)Oc3c(C)c(O)c4c(O)c(c(/C=N/N5CCN(C)CC5)c(O)c4c3C2=O)NC(=O)/C(C)=C\C=C\[C@H](C)[C@H](O)[C@@H](C)[C@@H](O)[C@@H](C)[C@H](OC(C)=O)[C@@H]1C [Rifampin, rifampin, reference compound]
% Hemolysis (200 μM): 8.0%
--
Molecule: Cc1nc2c(I)cc(I)c(O)c2nc1C
% Hemolysis (200 μM): 1.2%

*Q* Specify reported % Hemolysis (200 μM) for the molecule shown: Oc1cccc2nc3cc(Cl)c(Cl)cc3nc12
*A* ≤1%

====

- Tested on: MRSA BAA-1707 planktonic cells and biofilms
- Protocol Details: Calgary Biofilm Device (CBD) assay, MBC/MBEC
- Condition Label: Staphylococcus aureus, read-out: MRSA BAA-1707 MBC
We begin with a simple list: items and their reported log10 MBC.
A value of 2 here means MBC of 100 in µM, since values are log10.

*Q* Specify reported log10 MBC for the molecule shown: Oc1c(Br)cc(I)c2nc3ccccc3nc12 [Compound 8, 2-Bromo-4-iodo-1-hydroxyphenazine]
*A* 1.37

*Q* Specify reported log10 MBC for the molecule shown: Oc1c(Br)cc(Br)c2nc3cc(Br)c(Br)cc3nc12 [Compound 17, 2,4,7,8-tetrabromo-1-hydroxyphenazine]
*A* 0.80

*Q* Specify reported log10 MBC for the molecule shown: CCCCc1cc(Br)c(O)c2nc3ccccc3nc12 [Compound 22, 2-Bromo-4-butyl-1-hydroxyphenazine]
*A* 1.67

*Q* Specify reported log10 MBC for the molecule shown: Oc1ccc(I)c2nc3cc(Cl)c(Cl)cc3nc12 [Compound 12, 7,8-Dichloro-4-iodo-1-hydroxyphenazine]
*A* 1.88

*Q* Specify reported log10 MBC for the molecule shown: Oc1c(Br)cc(Br)c2nc3ccc(Br)cc3nc12 [Compound 18, 2,4,8-Tribromo-1-hydroxyphenazine]
*A* 1.10

*Q* Specify reported log10 MBC for the molecule shown: CC(=O)NC[C@H]1CN(c2ccc(N3CCOCC3)c(F)c2)C(=O)O1 [Linezolid, linezolid, reference compound]
*A* 1.50

*Q* Specify reported log10 MBC for the molecule shown: Oc1c(Br)cc(Br)c2nc3cc(Cl)c(Cl)cc3nc12
*A* 0.80
